Test: Primary qHTS for small molecule stabilizers of the endoplasmic reticulum resident proteome: Secreted ER Calcium Modulated Protein (SERCaMP) assay (AID 1508630)
Conditions: SH-SY5Y GLuc-SERCaMP (Gaussia luciferase released on ER calcium loss) secretion, thapsigargin, luminescence; series mostly up to 38.4 µM
Inconclusive results are not listed. Active and inactive are the calls of the source. The call rests on the fitted dose curve; in most records, active means well fitted inhibition curve with a large enough effect; inconclusive means small, poorly fitted or top-dose-only effect; inactive means no such curve, though single readings can be large or run the other way.
REPORTED PROPERTY: outcome

[
  {
    "COMPOUND": "C=CC[C@]1(O)CC[C@H]2[C@@H]3CCC4=CC(=O)CCC4=C3C=C[C@@]21C",
    "REPORTED PROPERTY": "outcome",
    "RESULT": "inactive"
  },
  {
    "COMPOUND": "CN(C)C(=O)Oc1cc(OC(=O)N(C)C)cc(C(O)CNC(C)(C)C)c1 (configuration not stated)",
    "REPORTED PROPERTY": "outcome",
    "RESULT": "inactive"
  },
  {
    "COMPOUND": "COc1cc(N)c(Cl)cc1C(=O)NC1CN2CCC1CC2 (configuration not stated)",
    "REPORTED PROPERTY": "outcome",
    "RESULT": "inactive"
  },
  {
    "COMPOUND": "c1ccc2nc(N3CCNCC3)ccc2c1",
    "REPORTED PROPERTY": "outcome",
    "RESULT": "inactive"
  }
]

Look up outcome for the entries below, preserving their order.
1. CC(Cc1ccccc1)NCc1ccccc1Cl (configuration not stated)
2. CCCN(CCC)CCc1c[nH]c2ccccc12
3. CCC1(CC)C(=O)NC(=O)NC1=O
4. CC[C@]1(O)CC[C@H]2[C@@H]3CCC4=CCCC[C@@H]4[C@H]3CC[C@@]21C
5. O=C(O)c1nn(Cc2ccc(Cl)cc2Cl)c2ccccc12

OUTPUT:
inactive
inactive
inactive
inactive
inactive

Hello, the source for this data is PubChem BioAssay (NCATS), in case you need it.
